# System: K-562
# assayDetails: Inhibition of cells growth by colorimetric assay (SRB), K-562
# Type: cell-based
# conditionsUsed: K-562; SRB, 48 hours exposure
valueKind: LC50 (50% lethal concentration) (nM)
Only the number, expressed in nM, is required.

Quick one: LC50 (50% lethal concentration) of C=COC(=O)Oc1cc2c(cc1OC)[C@@]1(CS[C@@H]3c4c(OC(C)=O)c(C)c5c(c4[C@H](COC1=O)N1C3[C@H]3c4c(cc(C)c(OC)c4O)C[C@@H]([C@@H]1O)N3C)OCO5)NCC2 (stereo partly shown) ? 4.16

###

# System: SW620
# assayDetails: Inhibition of cells growth by colorimetric assay (SRB), SW620
# Format: cell-based
# conditionsUsed: Homo sapiens, SW-620, 48 h, read-out: SW-620 LC50
Hi! Could you tag entries with LC50 below 700 nM as condition met, and those at or above as condition not met? Much appreciated.

Given the entry COc1cc2c(cc1O)CCN[C@]21CS[C@@H]2c3c(OC)c(C)c4c(c3[C@H](COC1=O)N1C2[C@H]2c3c(cc(C)c(OC)c3O)C[C@@H]([C@@H]1O)N2C)OCO4 (stereo partly drawn) , would its reported LC50 be below 700 nM? condition met

Given the entry COc1cc2c(cc1OC(=O)OC(C)(C)C)CCN[C@]21CS[C@@H]2c3c(OC(=O)OC(C)(C)C)c(C)c4c(c3[C@H](COC1=O)N1C2[C@H]2c3c(cc(C)c(OC)c3O)C[C@@H]([C@@H]1O)N2C)OCO4 (stereo partly drawn) , would its reported LC50 be below 700 nM? condition met

Given the entry COc1cc2c(cc1O)CCN[C@]21CS[C@@H]2c3c(OC(C)=O)c(C)c4c(c3[C@H](COC1=O)N1C2[C@H]2c3c(cc(C)c(OC)c3OC(=O)OC(C)(C)C)C[C@@H]([C@@H]1O)N2C)OCO4 (stereo partly drawn) , would its reported LC50 be below 700 nM? condition met

Given the entry COc1cc2c(cc1O)CCN(C)[C@]21CS[C@@H]2c3c(OC(C)=O)c(C)c4c(c3[C@H](COC1=O)N1C2[C@@H]2N[C@@H](Cc3cc(C)c(OC)c(O)c32)[C@@H]1C#N)OCO4 (stereo partly drawn) , would its reported LC50 be below 700 nM? condition met

Given the entry COc1cc2c(cc1OC(=O)/C=C/c1ccccc1)CCN[C@]21CS[C@@H]2c3c(OC(C)=O)c(C)c4c(c3[C@H](COC1=O)N1C2[C@@H]2N[C@@H](Cc3cc(C)c(OC)c(O)c32)[C@@H]1O)OCO4 (stereo partly drawn) , would its reported LC50 be below 700 nM? condition not met

###

# System: LoVo
# assayDetails: Inhibition of cells growth by colorimetric assay (SRB), LoVo
# Format: cell-based
# conditionsUsed: read-out: LOVO LC50; LOVO; SRB, 48 hours exposure
Record form. Attribute: LC50 (concentration for 50% cell killing). Fill in for each entry.
Only the number, expressed in nM, is required.

Quick one: LC50 (concentration for 50% cell killing) of COc1cc2c(cc1OC(=O)Cc1cc(=O)oc3cc(N(C)C)ccc13)CCN[C@]21CS[C@@H]2c3c(OC(C)=O)c(C)c4c(c3[C@H](COC1=O)N1C2[C@H]2c3c(cc(C)c(OC)c3OC(=O)Cc3cc(=O)oc5cc(N(C)C)ccc35)C[C@@H]([C@@H]1O)N2C)OCO4 (some centres unmarked) [Compound 77] ? 8.21

Quick one: LC50 (concentration for 50% cell killing) of COc1cc2c(cc1OC(=O)Cc1cc(=O)oc3cc(N(C)C)ccc13)CCN[C@]21CS[C@@H]2c3c(OC(C)=O)c(C)c4c(c3[C@H](COC1=O)N1C2[C@H]2c3c(cc(C)c(OC)c3OC(=O)Cc3cc(=O)oc5cc(N(C)C)ccc35)C[C@@H]([C@@H]1O)N2C)OCO4 (some centres unmarked) [Compound 78] ? 74.3
